tested on: Plasmodium falciparum; assay: MMV: P. falciparum NF54 functionally mature Stage V gametocytes were incubated for 24 hr in the presence of the test compounds. Gamete formation was then triggered by addition of 2uM xantheurenic acid and temperature decrease to ~20C. Male gamete exflagellation was recorded and analysed by automated microscopy after 20 min. All compounds were tested in 4 independent experiments and data presented here is the mean.; format: functional; parameters: concentration or dose not given beside the values
outcomeMeasure: inhibition (%)
API: value field is a number in %; no unit string.

Below: 5 compounds and their reported inhibition.
compound	inhibition, %
CCOc1cc(CNC(C)C(O)c2ccccc2)cc(Cl)c1OCC (stereo unspecified)	11.6
Cc1ccc(-c2cc3nc4c(c(O)n3n2)CCCC4)cc1	22.3
CC(C)=CCN1CCC(C(=O)Nc2ccc(-c3nc4ccccc4[nH]3)cc2)CC1	-15.4
COC(=O)c1ccc(Cl)c2c1C1C=CCC1C(c1cccc3ccccc13)N2 (stereo unspecified)	42.4
CN(C)CCCNCc1ccc(-c2ccc(F)c(Cl)c2)o1.Cl	51.9

Req: Requested field: inhibition. Item: O=C(Nc1ccc(F)c(Cl)c1)Nc1ccc(Cl)c(Cl)c1
Resp: 15.7

Req: Requested field: inhibition. Item: CC(C)(C)c1ccc(C(=O)Nc2c3c(nn2-c2cccc(Cl)c2)CSC3)cc1
Resp: 25.7

Req: Requested field: inhibition. Item: Cc1cc(Nc2ccc3ccccc3c2)n2ncnc2n1
Resp: -4.18

Req: Requested field: inhibition. Item: CCOc1ccc(Nc2ccnc3cc(Cl)ccc23)cc1
Resp: -4.26

Req: Requested field: inhibition. Item: CCOC(=O)c1c[nH]c2c(CC)cccc2c1=O
Resp: 21.5

Req: Requested field: inhibition. Item: COc1cc(-c2nc(-c3ccccc3)c(-c3ccccc3)[nH]2)cc(OC)c1O
Resp: 5
